Just for reference, patent US12157746B2 is where these values come from.

- system_name: human TLR9 (Homo sapiens)
- Sequence (Q9NR96 26-1032): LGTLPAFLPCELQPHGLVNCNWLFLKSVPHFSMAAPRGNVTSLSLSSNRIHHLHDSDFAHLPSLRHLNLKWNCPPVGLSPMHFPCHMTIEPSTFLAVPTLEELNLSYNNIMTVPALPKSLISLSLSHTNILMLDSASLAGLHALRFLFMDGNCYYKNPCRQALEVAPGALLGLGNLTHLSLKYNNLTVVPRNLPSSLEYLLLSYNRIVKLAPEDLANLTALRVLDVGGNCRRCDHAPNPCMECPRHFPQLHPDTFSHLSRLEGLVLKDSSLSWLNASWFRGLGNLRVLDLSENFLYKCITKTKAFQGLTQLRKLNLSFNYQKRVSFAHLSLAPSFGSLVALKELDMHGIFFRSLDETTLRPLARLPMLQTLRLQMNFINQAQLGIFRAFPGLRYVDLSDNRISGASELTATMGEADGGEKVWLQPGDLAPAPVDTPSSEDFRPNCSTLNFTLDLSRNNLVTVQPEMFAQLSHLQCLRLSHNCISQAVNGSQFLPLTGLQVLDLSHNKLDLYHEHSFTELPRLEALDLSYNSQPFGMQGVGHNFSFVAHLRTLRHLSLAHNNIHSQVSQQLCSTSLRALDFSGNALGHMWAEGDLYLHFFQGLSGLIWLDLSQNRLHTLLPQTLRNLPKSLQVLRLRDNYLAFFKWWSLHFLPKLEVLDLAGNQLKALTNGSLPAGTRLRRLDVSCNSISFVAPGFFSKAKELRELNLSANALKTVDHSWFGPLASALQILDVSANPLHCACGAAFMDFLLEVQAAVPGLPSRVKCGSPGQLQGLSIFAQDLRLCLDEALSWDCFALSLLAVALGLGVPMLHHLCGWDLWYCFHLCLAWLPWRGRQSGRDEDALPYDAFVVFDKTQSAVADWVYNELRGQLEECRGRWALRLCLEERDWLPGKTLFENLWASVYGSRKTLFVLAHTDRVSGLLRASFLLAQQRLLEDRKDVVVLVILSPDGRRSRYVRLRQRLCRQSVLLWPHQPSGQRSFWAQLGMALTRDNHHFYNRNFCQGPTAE
- protocol: HEK293-Blue-hTLR-9 cells assay
- protocol_conditions: HEK293-Blue-hTLR9 cells, ODN2006 stimulation, 20 hrs, SEAP reporter; read-out: HEK/hTLR9 IC50
attribute_measured: IC50 (nM)

C[C@@H]1CN(c2ccc(C#N)c3ncccc23)C[C@@H]2c3ccc(N4CCOC[C@@H](N)C4)cc3CN12 [Example 54B] ... 87.3
C[C@@H]1CN(c2ccc(C#N)c3ncccc23)C[C@@H]2c3cccc(N4CCNCC4)c3CN12 ... 150

(a) CO[C@@H]1CN(c2ccc3c(c2)CN2[C@H](C)CN(c4ccc(C#N)n5nccc45)C[C@H]32)C[C@H]1N
(b) C[C@@H]1CN(c2ccc(C#N)c3ncccc23)C[C@@H]2c3ccc(N[C@H]4CNC[C@@H]4F)cc3CN12
Asked: Lower value of IC50 belongs to which: a or b ? Respond with the label that goes with your answer.
Given back: b

====

- system_name: human TLR7 (Homo sapiens)
- Sequence (Q9NYK1 27-1049): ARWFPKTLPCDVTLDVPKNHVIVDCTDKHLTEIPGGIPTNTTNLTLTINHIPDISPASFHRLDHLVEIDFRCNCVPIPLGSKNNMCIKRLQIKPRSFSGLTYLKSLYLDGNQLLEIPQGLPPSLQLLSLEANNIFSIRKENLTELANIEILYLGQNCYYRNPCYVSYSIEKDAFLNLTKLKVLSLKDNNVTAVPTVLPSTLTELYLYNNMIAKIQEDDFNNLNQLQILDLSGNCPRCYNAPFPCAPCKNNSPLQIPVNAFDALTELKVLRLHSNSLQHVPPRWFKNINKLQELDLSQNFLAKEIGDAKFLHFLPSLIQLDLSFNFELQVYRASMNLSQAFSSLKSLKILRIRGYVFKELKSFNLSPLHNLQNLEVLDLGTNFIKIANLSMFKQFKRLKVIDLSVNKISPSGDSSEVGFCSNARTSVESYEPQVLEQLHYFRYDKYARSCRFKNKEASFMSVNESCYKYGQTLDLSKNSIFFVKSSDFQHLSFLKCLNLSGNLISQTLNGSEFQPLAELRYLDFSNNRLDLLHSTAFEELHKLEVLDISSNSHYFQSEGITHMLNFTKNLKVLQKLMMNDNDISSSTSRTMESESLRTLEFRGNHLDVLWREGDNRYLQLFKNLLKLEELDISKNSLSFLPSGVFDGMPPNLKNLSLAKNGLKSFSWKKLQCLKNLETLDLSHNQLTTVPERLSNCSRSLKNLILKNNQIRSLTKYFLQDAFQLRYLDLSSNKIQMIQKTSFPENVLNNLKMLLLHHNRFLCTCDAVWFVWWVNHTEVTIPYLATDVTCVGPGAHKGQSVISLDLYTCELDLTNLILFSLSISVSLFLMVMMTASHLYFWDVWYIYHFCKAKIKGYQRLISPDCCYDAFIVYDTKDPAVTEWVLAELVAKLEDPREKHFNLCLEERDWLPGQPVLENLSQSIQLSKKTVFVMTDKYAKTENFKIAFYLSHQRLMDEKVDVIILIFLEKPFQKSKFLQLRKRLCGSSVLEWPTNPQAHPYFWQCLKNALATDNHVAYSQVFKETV
- protocol: HEK293-Blue-hTLR-7 cells assay
- protocol_conditions: HEK293-Blue-hTLR7 cells, R848 stimulation, 20 hrs, SEAP reporter; read-out: HEK/hTLR7 IC50
attribute_measured: IC50 (nM)

// known answers, use as guide
C[C@@H]1CN(c2ccc(C#N)c3ncccc23)C[C@@H]2c3cccc(NCCN4CC[C@H](O)C4)c3CN12 ... 17.9
C[C@@H]1CN(c2ccc(C#N)c3ncccc23)C[C@@H]2c3ccc(N4CC[C@@H](N)C4)cc3CN12 ... 3.4
C[C@@H]1CN(c2ccc(C#N)c3ncccc23)C[C@@H]2c3ccc(N[C@@H]4CCCNC4)cc3CN12 ... 4.4

(A) CO[C@@H]1CNC[C@H]1Nc1ccc2c(c1)CN1[C@H](C)CN(c3ccc(C#N)c4ncccc34)C[C@H]21
(B) C[C@@H]1CN(c2ccc(C#N)c3ncccc23)C[C@@H]2c3ccc(OC[C@@H]4C[C@H](F)CN4)cc3CN12
(C) N#Cc1ccc(N2CCN3Cc4cc(N5CCNCC5)ccc4C3C2)c2scnc12 (stereo not shown)
Asked: Arrange items by their IC50 values in increasing order. Give the labels in the order specified.
Given back: B, A, C

====

Entries and their measured IC20 follow.
- system_name: hERG K+ channel (Homo sapiens, UniProt Q12809)
- Construct: expressed in transfected cells; host or cells: CHO (Chinese hamster ovary) cells, CHOhERG
- Sequence (Q12809 whole entry): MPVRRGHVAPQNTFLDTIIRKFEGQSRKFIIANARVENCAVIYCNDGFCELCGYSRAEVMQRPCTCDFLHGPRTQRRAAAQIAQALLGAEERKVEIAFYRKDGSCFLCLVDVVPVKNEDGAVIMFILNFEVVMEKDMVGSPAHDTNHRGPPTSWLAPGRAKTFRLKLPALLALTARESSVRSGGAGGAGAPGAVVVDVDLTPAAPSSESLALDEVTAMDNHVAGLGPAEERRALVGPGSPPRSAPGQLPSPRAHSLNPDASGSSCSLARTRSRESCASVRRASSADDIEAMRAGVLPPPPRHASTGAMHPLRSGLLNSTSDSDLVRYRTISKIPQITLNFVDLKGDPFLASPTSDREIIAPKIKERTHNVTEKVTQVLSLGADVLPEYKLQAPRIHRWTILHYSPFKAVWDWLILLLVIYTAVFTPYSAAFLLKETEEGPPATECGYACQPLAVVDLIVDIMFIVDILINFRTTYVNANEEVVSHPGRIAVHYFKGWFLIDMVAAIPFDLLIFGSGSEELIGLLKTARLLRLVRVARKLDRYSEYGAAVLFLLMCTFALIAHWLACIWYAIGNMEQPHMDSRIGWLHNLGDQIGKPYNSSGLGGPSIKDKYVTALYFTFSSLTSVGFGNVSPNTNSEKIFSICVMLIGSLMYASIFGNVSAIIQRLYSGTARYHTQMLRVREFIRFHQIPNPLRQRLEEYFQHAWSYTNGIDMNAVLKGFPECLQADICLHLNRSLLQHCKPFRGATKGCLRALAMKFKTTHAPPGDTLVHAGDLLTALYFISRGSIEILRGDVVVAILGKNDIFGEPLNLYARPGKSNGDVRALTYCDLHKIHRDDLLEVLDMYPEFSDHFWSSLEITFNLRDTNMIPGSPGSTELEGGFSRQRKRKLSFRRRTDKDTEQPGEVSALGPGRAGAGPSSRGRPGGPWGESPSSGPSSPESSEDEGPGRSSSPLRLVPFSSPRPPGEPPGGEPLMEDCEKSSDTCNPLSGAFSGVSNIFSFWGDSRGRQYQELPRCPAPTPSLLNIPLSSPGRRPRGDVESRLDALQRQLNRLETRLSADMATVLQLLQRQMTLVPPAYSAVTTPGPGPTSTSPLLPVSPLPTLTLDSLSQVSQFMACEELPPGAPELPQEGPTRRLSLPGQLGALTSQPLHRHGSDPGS
- protocol: hERG channel inhibition assay
- Format: cell-based
- protocol_conditions: human, CHO cells stably expressing hERG, patch-clamp (voltage-clamp, whole-cell)

C[C@@H]1CN(c2ccc(C#N)c3ncccc23)C[C@@H]2c3ccc(N4CC(N)C4)cc3CN12 ... 5 µM

Asked: Give the reported value of IC20 for this record: `C[C@@H]1CN(c2ccc(C#N)c3ncccc23)C[C@@H]2c3ccc(N4C[C@H]5NCCO[C@@H]5C4)cc3CN12`
Given back: 6.4 µM

Asked: Identify measured IC20 corresponding to `CN[C@@H]1CN(c2ccc3c(c2)CN2[C@H](C)CN(c4ccc(C#N)c5ncccc45)C[C@H]32)C[C@H]1O`
Given back: 5.2 µM

Asked: Kindly indicate its recorded IC20. Item: `C[C@@H]1CN(c2ccc(C#N)c3ncccc23)C[C@@H]2c3ccc(N4CC5(CCN5)C4)cc3CN12`
Given back: 8.6 µM

Asked: Indicate its recorded IC20; the compound in question is C[C@@H]1CN(c2ccc(C#N)c3ncccc23)C[C@@H]2c3ccc(N4C[C@@H](N)[C@](C)(O)C4)cc3CN12 [Example 45A]
Given back: 7.4 µM

Asked: For the compound COC12CNCC1CN(c1ccc3c(c1)CN1[C@H](C)CN(c4ccc(C#N)c5ncccc45)C[C@H]31)C2 (stereo partly drawn) , give its reported IC20.
Given back: > 10 µM

====

- system_name: human TLR7 (Homo sapiens)
- protocol: HEK293-Blue-hTLR-7 cells assay
- protocol_conditions: HEK293-Blue-hTLR7 cells, R848 stimulation, 20 hrs, SEAP reporter; read-out: HEK/hTLR7 IC50
attribute_measured: IC50 (nM)

CO[C@@H]1CN(c2ccc3c(c2)CN2[C@H](C)CN(c4ccc(C#N)n5nccc45)C[C@H]32)CC[C@H]1N [Example 104] ... 6.1

(1) C[C@@H]1CN(c2ccc(C#N)n3nccc23)C[C@@H]2c3ccc(N4C[C@H](N)[C@@](C)(O)C4)cc3CN12 [Example 109]
(2) C[C@@H]1CN(c2ccc(C#N)c3ncccc23)C[C@@H]2c3ccc(N4CCNC[C@@H](O)C4)cc3CN12 [Example 53B]
Asked: Of 1 and 2 , which carries the smaller reported IC50 figure? Write the label of whichever entry you select.
Given back: 2

====

- system_name: human TLR7 (Homo sapiens, UniProt Q9NYK1)
- protocol: HEK293-Blue-hTLR-7 cells assay
- protocol_conditions: HEK293-Blue-hTLR7 cells, R848 stimulation, 20 hrs, SEAP reporter; read-out: HEK/hTLR7 IC50
pIC50: −log10 of the molar value.
attribute_measured: pIC50

(P) C[C@@H]1CN(c2ccc(C#N)c3ncccc23)C[C@@H]2c3ccc(N4CC(N)C5(COC5)C4)cc3CN12 (some centres unmarked)
(Q) [2H]c1ccc2c(N3C[C@@H](C)N4Cc5cc(N[C@H]6CNC[C@H]6F)ccc5[C@H]4C3)ccc(C#N)c2n1
Asked: Between these two entries, P and Q , state which has the higher pIC50. When you have decided, please share the label of that item.
Given back: Q

(1) C[C@@H]1CN(c2ccc(C#N)c3ncccc23)C[C@@H]2c3ccc(N4CCOC[C@@H](N)C4)cc3CN12 [Example 54B]
(2) C[C@@H]1CN(c2ccc(C#N)c3ncccc23)C[C@@H]2c3ccc(N[C@@H]4CNC[C@@H]4F)cc3CN12
(3) C[C@@H]1CN(c2ccc(C#N)n3nccc23)C[C@@H]2c3ccc(N4C[C@H](N)[C@@H](O)C4)cc3CN12
Asked: Give the ascending ranking of the items by reported pIC50. Answer by listing the labels in the order asked for.
Given back: 3, 1, 2

====

- protocol: Human microsomal stability assay
- Format: in vitro ADME
- protocol_conditions: human liver microsomes 0.5 mg/mL, 37° C., pH 7.4, NADPH regenerating system, 0-30 minutes
attribute_measured: CL (h) (mL/min/kg)

C[C@@H]1CN(c2ccc(C#N)c3ncccc23)C[C@@H]2c3ccc(N4CCC(N)(CO)C4)cc3CN12 (stereo partly drawn) ... 7.7
C[C@@H]1CN(c2ccc(C#N)c3ncccc23)C[C@@H]2c3ccc(N4C[C@@H](F)[C@@H](N)C4)cc3CN12 ... 8.8
C[C@@H]1CN(c2ccc(C#N)c3ncccc23)C[C@@H]2c3ccc(N4CCNCC4)cc3CN12 ... 6.8
CO[C@H]1CNC[C@H]1Nc1ccc2c(c1)CN1[C@H](C)CN(c3ccc(C#N)c4ncccc34)C[C@H]21 ... 7.3
C[C@@H]1CN(c2ccc(C#N)c3ncccc23)C[C@@H]2c3ccc(N4CC5(CNC5)C4)cc3CN12 ... 6.2
COC1CN(c2ccc3c(c2)CN2C3CN(c3ccc(C#N)c4ncccc34)C[C@H]2C)CC1N (single isomer, unassigned) [Example 16B] ... 8.1
C[C@@H]1CN(c2ccc(C#N)c3ncccc23)C[C@@H]2c3ccc(N4C[C@@H](N)[C@](C)(O)C4)cc3CN12 [Example 45A] ... 6.2
C[C@@H]1CN(c2ccc(C#N)n3ncc(F)c23)C[C@@H]2c3ccc(N4C[C@H](N)[C@@](C)(O)C4)cc3CN12 ... 8.6
C[C@@H]1CN(c2ccc(C#N)c3ncccc23)C[C@@H]2c3ccc(N4CC[C@@H](N)C4)cc3CN12 ... 6.5
C[C@@H]1CN(c2ccc(Cl)c3ncccc23)C[C@@H]2c3ccc(N[C@H]4CNC[C@H]4F)cc3CN12 ... 6.2
C[C@@H]1CN(c2ccc(C#N)c3ncccc23)C[C@@H]2c3ccc(N4CCOC[C@@H](N)C4)cc3CN12 [Example 54B] ... 7.0
C[C@@H]1CN(c2ccc(C#N)c3ncccc23)C[C@@H]2c3ccc(N[C@@H]4CNC[C@@H]4F)cc3CN12 ... 8.7
